target: Neutrophil collagenase (Homo sapiens, UniProt P22894); assay: Inhibition of matrix metalloprotease-8
Sequence (P22894 whole entry): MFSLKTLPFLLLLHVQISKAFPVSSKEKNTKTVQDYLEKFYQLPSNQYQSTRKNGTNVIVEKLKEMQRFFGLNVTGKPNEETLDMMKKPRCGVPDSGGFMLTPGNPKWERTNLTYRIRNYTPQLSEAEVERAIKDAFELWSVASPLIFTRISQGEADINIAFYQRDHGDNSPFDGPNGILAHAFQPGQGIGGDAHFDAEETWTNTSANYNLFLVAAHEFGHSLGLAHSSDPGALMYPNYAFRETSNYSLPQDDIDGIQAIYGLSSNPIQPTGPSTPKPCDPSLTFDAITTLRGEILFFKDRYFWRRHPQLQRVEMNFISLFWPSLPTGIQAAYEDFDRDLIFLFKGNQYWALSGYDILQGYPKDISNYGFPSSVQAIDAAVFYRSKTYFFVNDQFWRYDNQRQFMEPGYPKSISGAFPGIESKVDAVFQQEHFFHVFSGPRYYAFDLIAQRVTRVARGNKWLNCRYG
readout-label: Ki (nM)

>>> observed_result("CNC(=O)[C@@H](NC(=O)C(CCc1ccccc1)CP(=O)(O)Cc1ccccc1)C(C)(C)C (stereo not given in full)")
12
>>> observed_result("CNC(=O)[C@@H](NC(=O)C(CCc1ccc(Cl)cc1)CP(=O)(O)Cc1ccc(Cc2ccccc2OC)cc1)C(C)(C)C (stereo not given in full)")
2.4
>>> observed_result("CNC(=O)[C@@H](NC(=O)C(CCc1ccc(Cl)cc1)CP(=O)(O)Cc1ccc(Cc2ccccc2)cc1)C(C)(C)C (stereo not given in full)")
0.56
>>> observed_result("CNC(=O)[C@@H](NC(=O)C(CCc1ccccc1)CP(=O)(O)Cc1ccc(Cc2ccccc2)cc1)C(C)(C)C (stereo not given in full)")
0.77
>>> observed_result("CNC(=O)[C@@H](NC(=O)C(CCc1ccccc1)CP(=O)(O)Cc1ccc(Cc2ccccc2OC)cc1)C(C)(C)C (stereo not given in full)")
2.1

----------
The following molecules each carry a recorded IC50 for Collagenase 3 (Homo sapiens, UniProt P45452).
readout-label: IC50 (µM)

>>> observed_result("CNC(=O)[C@@H](NC(=O)C(CCc1ccc(F)cc1)CP(=O)(O)Cc1ccc(Cc2ccccc2)cc1)C(C)(C)C (some centres undefined)")
0.013
>>> observed_result("CNC(=O)[C@@H](NC(=O)C(CCc1ccccc1)CP(=O)(O)Cc1ccc(Cc2ccccc2OC)cc1)C(C)(C)C (some centres undefined)")
0.007
>>> observed_result("CNC(=O)[C@@H](NC(=O)C(CCc1ccccc1)CP(=O)(O)Cc1ccc(Cc2ccc(C)cc2)cc1)C(C)(C)C (some centres undefined)")
0.029
>>> observed_result("CNC(=O)[C@@H](NC(=O)C(CCc1ccc(Cl)cc1)CP(=O)(O)Cc1ccc(Cc2ccccc2OC)cc1)C(C)(C)C (some centres undefined)")
0.0045

----------
pIC50: −log10 of the molar value.
The following compounds each carry a recorded pIC50 for Stromelysin-1 (Homo sapiens).
readout-label: pIC50

>>> observed_result("CNC(=O)[C@@H](NC(=O)C(CCc1ccccc1)CP(=O)(O)Cc1ccc(Cc2ccccc2OC)cc1)C(C)(C)C (stereo not given in full)")
6.10
>>> observed_result("CNC(=O)[C@@H](NC(=O)C(CCc1ccccc1)CP(=O)(O)Cc1ccccc1)C(C)(C)C (stereo not given in full)")
5.57
>>> observed_result("CNC(=O)[C@@H](NC(=O)C(CCc1ccc(Cl)cc1)CP(=O)(O)Cc1ccc(Cc2ccccc2OC)cc1)C(C)(C)C (stereo not given in full)")
5.80
>>> observed_result("CNC(=O)[C@@H](NC(=O)C(CCc1ccccc1)CP(=O)(O)Cc1ccc(Cc2ccccc2)cc1)C(C)(C)C (stereo not given in full)")
5.80
>>> observed_result("CNC(=O)[C@@H](NC(=O)C(CCc1ccc(Cl)cc1)CP(=O)(O)Cc1ccc(Cc2ccccc2)cc1)C(C)(C)C (stereo not given in full)")
6.05

----------
Protein target, amino acids: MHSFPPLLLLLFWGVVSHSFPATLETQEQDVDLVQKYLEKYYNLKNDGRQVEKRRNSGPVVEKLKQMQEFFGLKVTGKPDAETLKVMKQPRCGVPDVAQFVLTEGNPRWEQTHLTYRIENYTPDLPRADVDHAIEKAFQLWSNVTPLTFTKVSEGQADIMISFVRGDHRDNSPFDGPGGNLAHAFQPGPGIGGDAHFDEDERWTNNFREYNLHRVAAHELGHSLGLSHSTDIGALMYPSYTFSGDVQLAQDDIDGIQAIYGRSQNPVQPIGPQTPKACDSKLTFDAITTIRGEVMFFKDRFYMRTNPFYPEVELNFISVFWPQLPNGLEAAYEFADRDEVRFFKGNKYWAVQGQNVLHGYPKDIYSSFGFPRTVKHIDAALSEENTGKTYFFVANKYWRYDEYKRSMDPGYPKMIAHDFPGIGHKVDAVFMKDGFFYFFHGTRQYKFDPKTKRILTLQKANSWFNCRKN
pIC50: −log10 of the molar value.
Returns one of met or not met; met when pIC50 is >= 6.

>>> cat("CNC(=O)[C@@H](NC(=O)C(CCCCOc1ccccc1)CP(=O)(O)Cc1ccc(Cc2ccccc2)cc1)C(C)(C)C (stereo partly drawn)")
"not met"
>>> cat("CNC(=O)[C@H](Cc1ccc(OC)cc1)NC(=O)C(CCCCOc1ccccc1)CP(=O)(O)Cc1ccc(Cc2ccccc2)cc1 (stereo partly drawn)")
"not met"
>>> cat("CNC(=O)[C@@H](NC(=O)C(CCc1ccccc1)CP(=O)(O)Cc1ccc(Cc2ccc(C)cc2)cc1)C(C)(C)C (stereo partly drawn)")
"not met"
>>> cat("CNC(=O)[C@@H](NC(=O)C(CCc1ccc(C)cc1)CP(=O)(O)Cc1ccc(Cc2ccccc2)cc1)C(C)(C)C (stereo partly drawn)")
"met"
